Sourced from patent US20230312577A1

Catalogue of GI50 values
- Test system: OPM2 cells
- PROTOCOL_DESCRIPTION: Cell proliferation assay (ViaLight, cellular ATP)
- Type: cell-based
- COND: Homo sapiens, OPM-2, 120 h, 5 days, 5 μM to 1 nM
MEASUREMENT_NAME: GI50

• CC(=O)N1c2ccc(-c3ccc(CNC(=O)c4nc5c(N6CCOCC6)nc(-c6cnc(N)nc6)nc5n4C)cc3)cc2CC[C@@H]1C [Cpd 071] = ≤ 100 nM
• CC(=O)N1c2ccc(-c3ccc(CCNC(=O)c4cn5cc(-c6cnc(N)nc6)nc(N6CCOCC6)c5n4)cc3)cc2CC[C@@H]1C [Cpd 044] = 100 to 500 nM
• CC(=O)N1c2ccc(-c3ccc(CNC(=O)c4cc5c(N6CCOCC6)nc(-c6cnc(N)nc6)c(Cl)n5n4)cc3)cc2CC[C@@H]1C [Cpd 068] = ≤ 100 nM
• CC(=O)N1c2ccc(-c3ccc(CNC(=O)c4cc5c(N6CCOCC6)nc(-c6cnc(N)nc6)cn5n4)cc3)cc2CC[C@@H]1C [Cpd 067] = ≤ 100 nM
• CC(=O)N1c2ccc(-c3ccc(CNCc4sc5c(N6CCOCC6)nc(-c6cnc(N)nc6)nc5c4C)cc3)cc2CC[C@@H]1C [Cpd 055] = > 500 nM
• CC(=O)N1c2ccc(-c3ccc(C(=O)NCCNC(=O)c4cc5nc(-c6cnc(N)nc6)nc(N6CCOCC6)c5s4)cc3)cc2CC[C@@H]1C [Cpd 031] = ≤ 100 nM

====

// reported IC50 per item
- TESTED_SYSTEM: GST-BRD4 (binding domain 1, amino acids 44-168) (Homo sapiens, UniProt O60885)
- PROTOCOL_DESCRIPTION: Bromodomain binding assay (FRET)
- COND: BRD4 binding domain 1, tetracetylated histone 4 peptide
MEASUREMENT_NAME: IC50

- CC(=O)N1c2ccc(-c3ccc(CN4CCN(C(=O)c5cn6cc(-c7cnc(N)nc7)nc(N7CCOCC7)c6n5)CC4)s3)cc2CCC1C (stereo not drawn) [Cpd 004]: 100 to 500 nM
- CC(=O)N1c2ccc(-c3ccc(C(=O)NCCNC(=O)c4cn5cc(-c6cnc(N)nc6)nc(N6CCOCC6)c5n4)cc3)cc2CCC1C (stereo not drawn) [Cpd 009]: ≤ 100 nM
- CC(=O)N1c2ccc(-c3ccc(C(=O)CN4CCN(C(=O)c5cn6cc(-c7cnc(N)nc7)nc(N7CCOCC7)c6n5)CC4)cc3)cc2CCC1C (stereo not drawn) [Cpd 007]: > 500 nM
- CC(=O)N1c2ccc(-c3ccc(CNC(=O)c4cn5cc(-c6cnc(N)nc6)nc(N6CCOCC6)c5n4)cc3)cc2CCC1C (stereo not drawn) [Cpd 002]: 100 to 500 nM
- CC(=O)N1c2ccc(-c3ccc(CNC(=O)CNC(=O)c4cn5cc(-c6cnc(N)nc6)nc(N6CCOCC6)c5n4)cc3)cc2CCC1C (stereo not drawn) [Cpd 003]: > 500 nM
- CC(=O)N1c2ccc(-c3ccc(C(=O)NCCCNC(=O)c4cn5cc(-c6cnc(N)nc6)nc(N6CCOCC6)c5n4)cc3)cc2CC[C@@H]1C [Cpd 013]: ≤ 100 nM

====

- System: OPM2 cells
- PROTOCOL_DESCRIPTION: Cell proliferation assay (ViaLight, cellular ATP)
- Format: cell-based
- COND: Homo sapiens, OPM-2, 120 h, 5 days, 5 μM to 1 nM
MEASUREMENT_NAME: GI50

- CC(=O)N1c2ccc(-c3cccc(CNC(=O)Cc4cn5cc(-c6cnc(N)nc6)nc(N6CCOCC6)c5n4)c3)cc2CC[C@@H]1C: 100 to 500 nM
- CC(=O)N1c2ccc(-c3ccc(CNC(=O)CNC(=O)c4cn5cc(-c6cnc(N)nc6)nc(N6CCOCC6)c5n4)cc3)cc2CCC1C (stereo not drawn): 100 to 500 nM
- CC(=O)N1c2ccc(-c3cccc(NC(=O)CNC(=O)c4sc5c(N6CCOCC6)nc(-c6cnc(N)nc6)nc5c4C)c3)cc2CC[C@@H]1C: 100 to 500 nM
- CC(=O)N1c2ccc(-c3cccc(CCNC(=O)c4nc5c(N6CCOCC6)nc(-c6cnc(N)nc6)cn5c4C)c3)cc2CC[C@@H]1C: 100 to 500 nM
- CC(=O)N1c2ccc(-c3ccc(CNC(=O)c4cn5c(N6CCOCC6)nc(-c6cnc(N)nc6)cc5n4)cc3)cc2CC[C@@H]1C: ≤ 100 nM
- CC(=O)N1c2ccc(-c3cnn(C4CCN(C(=O)c5sc6c(N7CCOCC7)nc(-c7cnc(N)nc7)nc6c5C)CC4)c3)cc2CC[C@@H]1C: ≤ 100 nM
